- MEASURED ON: human recombinant COX‐2 (Homo sapiens, UniProt P35354)
- Sequence (P35354 18-604): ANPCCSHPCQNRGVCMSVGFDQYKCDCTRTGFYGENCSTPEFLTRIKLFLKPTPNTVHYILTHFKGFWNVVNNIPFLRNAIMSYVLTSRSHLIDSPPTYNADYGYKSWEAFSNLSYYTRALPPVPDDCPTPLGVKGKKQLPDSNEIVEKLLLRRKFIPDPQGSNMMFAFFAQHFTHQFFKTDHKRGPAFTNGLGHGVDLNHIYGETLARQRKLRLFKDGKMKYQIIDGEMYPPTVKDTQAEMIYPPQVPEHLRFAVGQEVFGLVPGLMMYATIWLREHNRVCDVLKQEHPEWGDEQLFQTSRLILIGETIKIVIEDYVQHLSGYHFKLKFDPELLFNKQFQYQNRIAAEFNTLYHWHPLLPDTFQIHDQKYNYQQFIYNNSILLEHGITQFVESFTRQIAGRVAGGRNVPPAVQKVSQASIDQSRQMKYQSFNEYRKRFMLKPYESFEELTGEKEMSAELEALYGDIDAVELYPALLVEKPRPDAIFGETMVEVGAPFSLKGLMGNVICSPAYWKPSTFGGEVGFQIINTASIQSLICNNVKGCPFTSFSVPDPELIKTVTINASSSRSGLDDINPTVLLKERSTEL
- EXPERIMENTAL PROTOCOL: In vitro fluorometric COX‐2 inhibitory assay and selectivity index
- MEASUREMENT SETUP: human recombinant enzyme, mean ± SEM
ATTRIBUTE MEASURED: IC50 (µM)
Give a bare numeral; the unit µM is implied.

Would you please look over these solved cases?
COc1ccc(/C=C/C(=O)c2c(O)cc(O)c(C(=O)/C=C/c3ccc(OC)cc3)c2O)cc1	44
COc1cc(/C=C/C(=O)c2c(O)cc(O)c(C(=O)/C=C/c3ccc(O)c(OC)c3)c2O)ccc1O	14.6

In the following, a different molecule is considered.
(Q) Look up IC50: COc1cc(/C=C/C(=O)c2c(OC)cc(OC)c(C(=O)/C=C/c3ccc(O)c(OC)c3)c2OC)ccc1O
(A) 5.5

Every entry's value here was drawn from paper PMC13110330.
